Where do these numbers come from? They come from patent US20120164137A1.

Target: Human FRA on IGROV-1 human ovarian adenocarcinoma cells (human, UniProt P15328 25-234)
Sequence (P15328 25-234 limits assumed): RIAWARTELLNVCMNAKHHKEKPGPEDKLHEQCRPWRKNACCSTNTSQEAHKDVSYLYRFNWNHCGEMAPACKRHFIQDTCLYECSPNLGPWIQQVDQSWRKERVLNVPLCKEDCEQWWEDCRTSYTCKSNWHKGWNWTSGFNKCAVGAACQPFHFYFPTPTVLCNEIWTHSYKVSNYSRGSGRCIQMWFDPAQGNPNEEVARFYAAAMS
Assay: cell-based or functional assay
Hi there, I'd appreciate the recorded INTL % (150 min) for every entry that follows.
Give bare numbers, in %.

Study these solved cases before continuing.
binder: MORAb-003 anti-FRA antibody, lot NB809-70 (CuCl supplement; harvested 13 days after initiation of culture) (antibody, human IgG1, kappa, V domains shown, N-linked neutral glycans at Asn299 in SEQ ID NO: 5) VH: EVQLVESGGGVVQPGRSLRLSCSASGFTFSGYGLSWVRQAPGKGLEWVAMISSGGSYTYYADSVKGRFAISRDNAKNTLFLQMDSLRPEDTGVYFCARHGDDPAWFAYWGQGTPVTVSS VL: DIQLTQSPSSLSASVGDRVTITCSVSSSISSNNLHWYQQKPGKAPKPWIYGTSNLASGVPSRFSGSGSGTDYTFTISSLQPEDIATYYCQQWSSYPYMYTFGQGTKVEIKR
INTL % (150 min), %: 58

binder: MORAb-003 anti-FRA antibody, lot NB859-26 (harvested 17 days after initiation of culture) (antibody, human IgG1, kappa, V domains shown, N-linked neutral glycans at Asn299 in SEQ ID NO: 5, also called Day 17 harvest) VH: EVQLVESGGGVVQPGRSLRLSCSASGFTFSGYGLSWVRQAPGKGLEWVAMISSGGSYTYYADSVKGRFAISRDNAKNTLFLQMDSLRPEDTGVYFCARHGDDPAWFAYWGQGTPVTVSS VL: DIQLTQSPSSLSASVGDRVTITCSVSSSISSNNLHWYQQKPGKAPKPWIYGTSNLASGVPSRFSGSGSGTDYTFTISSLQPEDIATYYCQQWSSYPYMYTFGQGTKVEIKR
INTL % (150 min), %: 56

Exercise: What value of measured INTL % (150 min) is listed for MORAb-003 anti-FRA antibody, lot NB810-11 (galactose supplement; harvested 14 days after initiation of culture) (antibody, human IgG1, kappa, V domains shown, N-linked neutral glycans at Asn299 in SEQ ID NO: 5) VH: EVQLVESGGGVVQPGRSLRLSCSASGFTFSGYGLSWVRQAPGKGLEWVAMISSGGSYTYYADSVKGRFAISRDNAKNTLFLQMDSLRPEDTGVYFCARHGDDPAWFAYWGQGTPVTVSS VL: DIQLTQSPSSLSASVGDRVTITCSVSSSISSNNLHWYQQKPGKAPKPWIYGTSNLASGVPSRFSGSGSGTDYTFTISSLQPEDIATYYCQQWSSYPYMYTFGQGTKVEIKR ?
Solution: 50
